Assay: recombinant barcode read abundance after kanamycin selection (control-corrected) (log10(CPM+1)); higher = more efficient recombination; sequences stand for … in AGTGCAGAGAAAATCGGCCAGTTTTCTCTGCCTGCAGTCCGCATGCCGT…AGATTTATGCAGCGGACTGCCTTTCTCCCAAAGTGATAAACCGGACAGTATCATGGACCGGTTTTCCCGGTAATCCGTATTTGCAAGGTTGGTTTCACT; site = the 11-nt target;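 note: IS621 recombinase and bridge RNA in Escherichia coli cells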
So I've got a bunch of sequences here, and I need their recombinant barcode read abundance (log10) values.
Numbers only.

ordered residues	quantitative readout
CTAAAGTCTTGGGTTCTAACCTGTTGCAC (site CTAAAGTCTGG)	0.0578
TAGCACCCTTGGGTTCTAACCTGTTGCCT (site TAGCACCCTAG)	1.79
CGCGATCCTTGGGTTCTAACCTGTTGCCT (site CGCGCTCCTAG)	0.0201

Please give recombinant barcode read abundance (log10) for each item listed below.
1. TCGAGTCCTTGGGTTCTAACCTGTTGCGG (site TCGAGTCCTCC)
2. AACTGATCTTGGGTTCTAACCTGTTGCCT (site AACTTATCTAG)
3. GTTTGAGCTTGGGTTCTAACCTGTTGCCT (site GTTAGAGCTAG)
4. ACCAAAGCTTGGGTTCTAACCTGTTGCCA (site ACCACAGCTAG)
5. GTATCAGCTTGGGTTCTAACCTGTTGCCT (site GTATCAACTAG)
6. GAAACTGCTTGGGTTCTAACCTGTTGCCT (site GATACTGCTAG)
7. TCGAAGTCTTGGGTTCTAACCTGTTGCTA (site AGATCTCCTAC)

Result:
1.08
0.038
0.231
0.137
0.181
0.0634
0.0769

====

Test: recombinant barcode read abundance after kanamycin selection (control-corrected) (log10(CPM+1)); higher = more efficient recombination; sequences stand for … in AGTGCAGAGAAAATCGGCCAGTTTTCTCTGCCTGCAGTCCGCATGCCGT…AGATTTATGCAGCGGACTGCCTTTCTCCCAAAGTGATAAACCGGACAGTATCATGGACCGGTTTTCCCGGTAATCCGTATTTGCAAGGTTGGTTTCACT; site = the 11-nt target
Grouping by measured recombinant barcode read abundance (log10) is done with the following cut points: class 1: < 0.08; class 2: ≥ 0.08 and < 0.3; class 3: ≥ 0.3

These solved cases illustrate the format of a correct answer.
ordered residues	label class
GGAAAGACTTGGGTTCTAACCTGTTGCAC (site TACCGCCCTAC)	class 2
TTGTGTTCTTGGGTTCTAACCTGTTGCTA (site GTGTGTTCTTG)	class 1
CCAGGGACTTGGGTTCTAACCTGTTGCCT (site CCATGGACTAG)	class 1
GATGATACTTGGGTTCTAACCTGTTGCGT (site GATGATACTAC)	class 3
GCACGCCCTTGGGTTCTAACCTGTTGCTT (site GCGCGGCCTAA)	class 2
TGTGCTACTTGGGTTCTAACCTGTTGCAC (site TGTGCTACTGT)	class 2
TTCTCTTCTTGGGTTCTAACCTGTTGCCT (site TTCTCTTCTAG)	class 1
CGTAAGCCTTGGGTTCTAACCTGTTGCAT (site CGTAAGCCTAT)	class 3

Request: Which category fits this record: ATGATTCCTTGGGTTCTAACCTGTTGCCT (site ATGATTCCTAG)
Result: class 3

Request: Which category fits this record: TTGATTGCTTGGGTTCTAACCTGTTGCCT (site TTGAATGCTAG)
Result: class 1

Request: Which category fits this record: TAGTACCCTTGGGTTCTAACCTGTTGCTG (site TAGTACCCTCA)
Result: class 3

Request: Which category fits this record: CTTAGGACTTGGGTTCTAACCTGTTGCCG (site CTTAGGACTCG)
Result: class 3

Request: Which category fits this record: AGAAGCACTTGGGTTCTAACCTGTTGCCA (site CTGTCTCCTAC)
Result: class 1

Where these numbers come from: the supplement of paper PMC11208160
